- Test system: human APOE RNA
- experiment_summary: Activity in APOE C57BL/6NTac-Apoeem7250 knock-in mice, single ICV bolus, 20 weeks (Example 13)
- Format: in vivo
- experimental_setup: cortex; single ICV bolus 300 μg; 20 weeks post treatment; normalized to mouse Ppia
Strand notation (5' to 3'): a small letter for the sugar, then the base; units joined by * are phosphorothioate-linked, units joined directly phosphodiester-linked; [ ] holds rarer units or linkages, { } end groups; capitals alone tell only the bases. [ms] = mesyl phosphoramidate linkage; e = 2'-O-(2-methoxyethyl) (MOE); k = constrained ethyl (cEt); [5mC] = 5-methylcytosine; d = 2'-deoxy (DNA)
Consider the following substances and their measured APOE RNA (% control) Cortex readings.
API: value field is a number in % control; no unit string.

The following substances have reported results that may help.
1. 1757574 (eA*e[5mC]eTeT*eG*eG*dT*dG[ms]dA[ms]dA[ms]dT*d[5mC]*dT*dT*dT*dA[ms]kT*kT*eA*eA; antisense) [Compound 1757574] | 60
2. 1778131: modified oligonucleotide complementary to human APOE RNA (eA*e[5mC]eTeTeGkG*dT*dG[ms]dA[ms]dA*dT*d[5mC]*dT*dT*dT*dA[ms]kTkT*eA*eA; antisense) [compound 1778131] | 65

Please turn your attention to the following entry.
Tell me the measured APOE RNA (% control) Cortex of 1779970 (e[5mC]*eTeTkG*kG*eT*dG[ms]dA[ms]dA*dT*d[5mC]*dT*dT*dT*dA*dT*eT*eA*eA*eA; antisense) [Compound 1779970] , please. 63

----------
Consider the following substances and their measured APOE RNA (% UTC) readings.
- Tested on: human APOE RNA
- experiment_summary: Dose-dependent inhibition of human APOE RNA in HepG2 cells, electroporation, 24 hours (Example 6)
- Type: cell-based
- experimental_setup: 5 nM
- Description: Modified oligonucleotides selected from the examples above were tested at various doses in HepG2. HepG2 cells plated at a density of 50,000 cells per well were treated by electroporation with various concentrations of modified oligonucleotide as specified in the tables below. […] APOE RNA levels were measured using the human primer probe set RTS3073 (described herein above). APOE RNA levels were normalized to human GAPDH. […]
Strand notation (5' to 3'): a small letter for the sugar, then the base; units joined by * are phosphorothioate-linked, units joined directly phosphodiester-linked; [ ] holds rarer units or linkages, { } end groups; capitals alone tell only the bases. [ms] = mesyl phosphoramidate linkage; e = 2'-O-(2-methoxyethyl) (MOE); k = constrained ethyl (cEt); [5mC] = 5-methylcytosine; d = 2'-deoxy (DNA)
API: value field is a number in % UTC; no unit string.

1. 1736520: 6-10-4 MOE gapmer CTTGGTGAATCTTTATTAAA, linkages sossoszzzssssssssss (e[5mC]*eTeT*eG*eGeT*dG[ms]dA[ms]dA[ms]dT*d[5mC]*dT*dT*dT*dA*dT*eT*eA*eA*eA) [compound 1736520] | 109
2. 1736534 (e[5mC]*eT*eT*eG*eGeT*dG[ms]dA[ms]dA[ms]dT*d[5mC]*dT*dT*dT*dA[ms]dT*kT*kA*eA*eA; antisense) [Compound 1736534] | 99
3. 1693102: 6-10-4 MOE gapmer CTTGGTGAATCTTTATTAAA, linkages ssssoszzzssssszssss (e[5mC]*eT*eT*eG*eGeT*dG[ms]dA[ms]dA[ms]dT*d[5mC]*dT*dT*dT*dA[ms]dT*eT*eA*eA*eA) [compound 1693102] | 89

Query APOE RNA (% UTC) on human APOE RNA for 1736525: 6-10-4 MOE gapmer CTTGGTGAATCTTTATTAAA, linkages sooosszzsssssssssss (e[5mC]*eTeTeGeG*eT*dG[ms]dA[ms]dA*dT*d[5mC]*dT*dT*dT*dA*dT*eT*eA*eA*eA) [compound 1736525] 101

----------
- System: human APOE RNA
- experiment_summary: Dose-dependent inhibition of human APOE RNA in differentiated SH-SY5Y cells, free uptake, 5 days (Example 5)
- Assay type: cell-based
- experimental_setup: 3,200 nM, 5 days (Table 14)
- Protocol: Modified oligonucleotides selected from the examples above were tested at various doses in differentiated SH-SY5Y cells. The modified oligonucleotides were tested in a series of experiments that had the same culture conditions. Differentiated SH-SY5Y cells plated at a density of 10,000 cells per well were treated by free uptake with various concentrations of modified oligonucleotide as specified in the tables below. […]
Strand notation (5' to 3'): a small letter for the sugar, then the base; units joined by * are phosphorothioate-linked, units joined directly phosphodiester-linked; [ ] holds rarer units or linkages, { } end groups; capitals alone tell only the bases. [ms] = mesyl phosphoramidate linkage; e = 2'-O-(2-methoxyethyl) (MOE); k = constrained ethyl (cEt); [5mC] = 5-methylcytosine; d = 2'-deoxy (DNA)
Please use Yes whenever APOE RNA (% UTC) is not below 20 % UTC, and No whenever it is.

Example cases with answers are listed next.
1. 1746784 (k[5mC]*kT*kT*dG[ms]dG[ms]dT[ms]dG[ms]dA[ms]dA[ms]dT*d[5mC]*dT*dT*dT*dA[ms]dT*kT*kA*dA[ms]kA; antisense) [Compound 1746784] | Yes
2. 1746804 (k[5mC]*kT*kT*dG[ms]dG[ms]dT[ms]dG[ms]dA[ms]dA[ms]dT*d[5mC]*dT*dT*dT*dA[ms]dT*dT[ms]kA*kA*kA; antisense) [Compound 1746804] | Yes
3. 1757575 (eA*e[5mC]eTeT*kG*kG*dT*dG[ms]dA[ms]dA[ms]dT*d[5mC]*dT*dT*dT*dA[ms]kT*eT*eA*eA; antisense) [Compound 1757575] | Yes
4. 1778130: modified oligonucleotide complementary to human APOE RNA (eA*e[5mC]eTeTeG*kG*dT*dG[ms]dA[ms]dA*dT*d[5mC]*dT*dT*dT*dA[ms]kTkT*eA*eA; antisense) [compound 1778130] | Yes

Switching to the query record.
Entry 1785599: modified oligonucleotide complementary to human APOE RNA (k[5mC]*kT*kT*dG[ms]dG[ms]dT[ms]dG[ms]dA[ms]dA[ms]dT[ms]d[5mC]*dT*dT*dT*dA*dT*kT*kA*dA[ms]kA; antisense) [compound 1785599] : is its APOE RNA (% UTC) no less than 20 % UTC? No

----------
- System: human APOE RNA
- experiment_summary: Dose-dependent reduction of human APOE RNA in HepG2 cells, electroporation, 20,000 cells per well, normalized to PPIA (Example 4, Table 11)
- Format: cell-based
- experimental_setup: HepG2 cells, 20,000 cells per well, approximately 24 hours, PPIA-normalized, 5 nM
Strand notation (5' to 3'): a small letter for the sugar, then the base; units joined by * are phosphorothioate-linked, units joined directly phosphodiester-linked; [ ] holds rarer units or linkages, { } end groups; capitals alone tell only the bases. [ms] = mesyl phosphoramidate linkage; e = 2'-O-(2-methoxyethyl) (MOE); k = constrained ethyl (cEt); [5mC] = 5-methylcytosine; d = 2'-deoxy (DNA)
Consider the following substances and their measured APOE RNA (% UTC) 5 nM readings.
API: value field is a number in % UTC; no unit string.

The following substances have reported results that may help.
1) ^mCksTksTksGdzGdzTdzGdzAdzAdzTds^mCdsTdsTdsTdsAdsTdsTksAksAdzAk (antisense k[5mC]*kT*kT*dG[ms]dG[ms]dT[ms]dG[ms]dA[ms]dA[ms]dT*d[5mC]*dT*dT*dT*dA*dT*kT*kA*dA[ms]kA) [Compound No. 1785602] | 75
2) Aks^mCeoTeoTesGesGksTdsGdzAdzAdzTds^mCdsTdsTdsTdsAdzTksTksAesAe (kA*e[5mC]eTeT*eG*kG*dT*dG[ms]dA[ms]dA[ms]dT*d[5mC]*dT*dT*dT*dA[ms]kT*kT*eA*eA) [Compound No. 1809635] | 105
3) Aes^mCeoTeoTesGesGksTdsGdzAdzAdzTds^mCdsTdsTdsTdsAdzTksTksAesAe (eA*e[5mC]eTeT*eG*kG*dT*dG[ms]dA[ms]dA[ms]dT*d[5mC]*dT*dT*dT*dA[ms]kT*kT*eA*eA) [Compound No. 1757576] | 78

Please turn your attention to the following entry.
Tell me the measured APOE RNA (% UTC) 5 nM of TezTeoGeoGksTdsGdzAdzAdzTds^mCdsTdsTdsTdsAdzTksTksAesAesAes^mCe (antisense eT[ms]eTeGkG*dT*dG[ms]dA[ms]dA[ms]dT*d[5mC]*dT*dT*dT*dA[ms]kT*kT*eA*eA*eA*e[5mC]) [Compound No. 1809814] , please. 102

----------
Consider the following substances and their measured APOE RNA (% UTC) readings.
- System: human APOE RNA
- experiment_summary: Dose-dependent inhibition of human APOE RNA in HepG2 cells, electroporation, 50,000 cells per well, RT-PCR normalized to GAPDH (Example 4, Tables 8-10)
- Type: cell-based
- experimental_setup: 205 nM; HepG2, electroporation, 16-hour treatment
Strand notation (5' to 3'): a small letter for the sugar, then the base; units joined by * are phosphorothioate-linked, units joined directly phosphodiester-linked; [ ] holds rarer units or linkages, { } end groups; capitals alone tell only the bases. e = 2'-O-(2-methoxyethyl) (MOE); k = constrained ethyl (cEt); [5mC] = 5-methylcytosine; d = 2'-deoxy (DNA)
Kindly report the value followed by its unit.

1) 1757559: mixed MOE/cEt gapmer TTGGTGAATCTTTATTAA, sugar eeeekddddddddkeeee, linkages soossssssssssooss (eT*eTeGeG*kT*dG*dA*dA*dT*d[5mC]*dT*dT*dT*kAeTeT*eA*eA) [compound 1757559] | 81 % UTC

Tell me the measured APOE RNA (% UTC) of 1757556: mixed MOE/cEt gapmer TTGGTGAATCTTTATTAA, sugar eeeeeddddddddekkee, linkages soossssssssssooss (eT*eTeGeG*eT*dG*dA*dA*dT*d[5mC]*dT*dT*dT*eAkTkT*eA*eA) [compound 1757556] , please. 101 % UTC
